The reported numbers originate from ChEMBL document CHEMBL1140940.

assay: Metabolic stability in human liver microsomes after 10 mins; assay type: ADME, Microsome; conditions: read-out: Stability
Please use yes for remaining at 10 min under 90% and no for everything else, ties included.

{"sample-smiles": "CONC(=O)c1cn(-c2ccc3c(c2)CCC3)c2nc(Nc3ccc(CCS(=O)(=O)NC(C)=O)cc3)ncc2c1=O", "class-name": "yes"}
{"sample-smiles": "CONC(=O)c1cn(-c2ccc3c(c2)CCC3)c2nc(Nc3ccc(CCN4CCNC(=O)C4)cc3)ncc2c1=O", "class-name": "yes"}
{"sample-smiles": "CONC(=O)c1cn(-c2ccc3c(c2)CCC3)c2nc(Nc3ccc(CCN4CCOCC4)cc3)ncc2c1=O", "class-name": "yes"}
{"sample-smiles": "CONC(=O)c1cn(C2CCCCC2)c2nc(Nc3ccc(C4CCN(C)CC4)cc3)ncc2c1=O", "class-name": "no"}
{"sample-smiles": "CONC(=O)c1cn(C2CCC(C)(C)CC2)c2nc(Nc3ccc(C4CCN(C)CC4)cc3)ncc2c1=O", "class-name": "no"}
